Data credit: paper PMC6728359

# Ki annotations
Target: rSmCA (recombinant SmCA, α-carbonic anhydrase) (Schistosoma mansoni)
Test: biochemical
Type: biochemical
Conditions: read-out: Ki SmCA

Take a look at these entries with their results.
N#CS [SCN−, thiocyanate] :: 3.15 mM
I [I^−, iodide] :: 5.11 mM
[O]=[Sn]([OH])[OH] :: 4.11 mM
S [HS^−, hydrosulfide] :: 5.96 mM
CCN(CC)C(=S)S :: 0.59 mM

// next entry
Quickly give me recorded Ki for N#C[SeH]
2.16 mM

###

Target: rSmCA (recombinant SmCA, α-carbonic anhydrase) (Schistosoma mansoni, UniProt A0A3Q0KSG2)
Sequence (A0A3Q0KSG2 21-298 limits assumed): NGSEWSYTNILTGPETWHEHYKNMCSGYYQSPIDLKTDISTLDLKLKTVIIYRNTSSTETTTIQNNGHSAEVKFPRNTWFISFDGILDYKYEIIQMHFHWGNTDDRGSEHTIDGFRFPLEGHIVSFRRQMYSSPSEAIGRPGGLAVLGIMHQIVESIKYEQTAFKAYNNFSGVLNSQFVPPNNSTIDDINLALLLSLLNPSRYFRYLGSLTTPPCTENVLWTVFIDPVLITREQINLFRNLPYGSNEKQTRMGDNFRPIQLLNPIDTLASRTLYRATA
Assay: biochemical
Type: biochemical
Result Type: Ki (nM)
Hi! Could you send only the number? It should be in nM, unit omitted.

Take a look at these entries with their results.
OB(O)c1ccccc1 :: 20000
NS(=O)(=O)c1ccc(S(=O)(=O)Nc2cccc3c(Cl)c[nH]c23)cc1 :: 36.5
NS(=O)(=O)Cc1noc2ccccc12 [ZNS, zonisamide] :: 937
CCN[C@H]1CN(CCCOC)S(=O)(=O)c2sc(S(N)(=O)=O)cc21 [BRZ, brinzolamide] :: 46.6

// next entry
Quickly give me recorded Ki for NS(=O)(=O)c1ccc(N2CCCCS2(=O)=O)cc1
3560

###

Biological target: rSmCA (recombinant SmCA, α-carbonic anhydrase) (Schistosoma mansoni)
Test: biochemical
Format: biochemical
Settings: read-out: Ki SmCA
Result Type: Ki

Take a look at these entries with their results.
O=[Se](=O)(O)O [SeO4^2−] :: 6.33 mM
[O]=[Ru](=[O])(=[O])=[O] [RuO4^−] :: 2.07 mM
[N-]=[N+]=[N-] [N3^−, azide] :: 2.43 mM
F [F^−, fluoride] :: 6.44 mM
O=S(=O)(O)F [FSO3^−] :: 6.02 mM
N#CO [CNO^−, cyanate] :: 4.18 mM
[O]=[Re](=[O])(=[O])[OH] [ReO4^−] :: 8.75 mM

// next entry
Quickly give me recorded Ki for O=S(O)O [HSO3^−]
> 100 mM

###

Target: rSmCA (recombinant SmCA, α-carbonic anhydrase) (Schistosoma mansoni, UniProt A0A3Q0KSG2)
Test: biochemical
Format: biochemical
Details: read-out: Ki SmCA
Result Type: pKi
Units for pKi: none; it is -log10 of a concentration expressed in mol/L.

O=C(O)O :: 2.29
NS(N)(=O)=O [H 2 NSO 2 NH 2, sulfamide] :: 5.15
[Br-].[K+] [Br−, bromide] :: 2.03

// next entry
Quickly give me recorded pKi for O=[N+]([O-])O [NO3−, nitrate]
2.10

###

Target: rSmCA (recombinant SmCA, α-carbonic anhydrase) (Schistosoma mansoni, UniProt A0A3Q0KSG2)
Experiment: biochemical
Assay type: biochemical
Result Type: Ki (nM)
Hi! Could you send only the number? It should be in nM, unit omitted.

Take a look at these entries with their results.
CC(=O)/N=c1/sc(S(N)(=O)=O)nn1C [MZA, methazolamide] :: 38.9
Cc1onc(-c2ccccc2)c1-c1ccc(S(N)(=O)=O)cc1 [VLX, valdecoxib] :: 431
CC1(C)O[C@@H]2[C@@H](CO[C@@]3(COS(N)(=O)=O)OC(C)(C)O[C@@H]23)O1 [TPM, topiramate] :: 568

Quickly give me recorded Ki for NS(=O)(=O)c1nnc(NS(=O)(=O)c2ccccc2)s1 [BZA, benzolamide]
34.1

Quickly give me recorded Ki for NS(=O)(=O)c1cc2c(cc1Cl)NCNS2(=O)=O [HCT, hydrochlorothiazide]
399
